Value source: ChEMBL document CHEMBL1138653

system: Bacillus cereus; experiment: Minimal inhibitory concentration against Bacillus cereus; format: functional
Assign MIC to each entry below.
Provide the measurement as a number trailed by its unit.

Ask: Short answer please: MIC, Bacillus cereus, entry "COc1ccc(Nc2cc3sc(C)c(C)c3cc2C)cc1"
Reply: 100 µg/mL

Ask: What about "COc1ccc(Nc2cc3sc(C)c(C)c3cc2C)cc1OC" ?
Reply: 200 µg/mL

Ask: What about "O=C(N[C@H](CO)[C@H](O)c1ccc([N+](=O)[O-])cc1)C(Cl)Cl" ?
Reply: 3.13 µg/mL

====

test system: Bacillus cereus; assay: inhibition of Bacillus cereus was measured by zone diameter; assay type: functional
Decision: Inhibition compared against 10 mm; not below it gives yes (1), below it gives no (0).

Ask: Threshold query (Inhibition >= 10 mm) on "Cc1cc2c(C)c(C)sc2cc1Br"
Reply: yes (1)

Ask: What about "COc1ccc(Nc2cc3sc(C)c(C)c3cc2C)cc1" ?
Reply: no (0)

Ask: What about "O=C(N[C@H](CO)[C@H](O)c1ccc([N+](=O)[O-])cc1)C(Cl)Cl" ?
Reply: no (0)

Ask: What about "COc1ccc(Nc2cc3sc(C)c(C)c3cc2C)cc1OC" ?
Reply: yes (1)

Ask: What about "CC1(C)S[C@@H]2[C@H](NC(=O)[C@H](N)c3ccccc3)C(=O)N2[C@H]1C(=O)O" ?
Reply: yes (1)

Ask: What about "Cc1cc2c(C)c(C)sc2cc1Nc1ccccc1F" ?
Reply: no (0)

Ask: What about "Cc1cc2c(C)c(C)sc2cc1Nc1ccc(F)cc1" ?
Reply: yes (1)

Ask: What about "Cc1cc2c(C)c(C)sc2cc1Nc1ccccc1" ?
Reply: yes (1)
